This collection of values is drawn from ChEMBL document CHEMBL1156597.

System: PANC-1
Assay Name: Cytotoxicity against human PANC1 cells after 48 hrs by SRB assay
Format: functional
Condition Label: PANC-1, 48 h, read-out: LC50 (the source's name)
Parameter: CC50 (µM)
One number for each entry, in µM.

Worked cases, answers included:
[[record]]
substance_smiles = "C/C=C1\\NC(=O)[C@H](Cc2ccccc2)NC(=O)[C@@H](C(C)C)NC(=O)[C@@H]([C@H](C)CC)NC(=O)[C@H](NC(=O)[C@H](NC(=O)[C@H](CCCN)NC(=O)[C@H]2CCCN2C(=O)[C@H](NC(=O)[C@@H](NC(=O)[C@H](C)NC(=O)[C@H](NC(=O)CCCC(C)C)C(C)C)C(C)C)C(C)C)[C@H](C)CC)[C@H](C)OC(=O)[C@H](C(C)C)NC1=O"
parameter = "CC50"
endpoint_result = 1.81

[[record]]
substance_smiles = "C/C=C1\\NC(=O)[C@H](Cc2ccccc2)NC(=O)[C@@H](C(C)C)NC(=O)[C@@H]([C@H](C)CC)NC(=O)[C@H](NC(=O)[C@H](NC(=O)[C@H](CCCN)NC(=O)[C@H]2CCCN2C(=O)[C@H](NC(=O)[C@H](CCC2CCCCC2)NC(=O)[C@@H](NC(=O)[C@H](NC(=O)CCCC(C)C)C(C)C)[C@@H](C)O)C(C)C)[C@H](C)CC)[C@H](C)OC(=O)[C@H](C(C)C)NC1=O"
parameter = "CC50"
endpoint_result = 1.7


What value of CC50 has been recorded for this entry: C/C=C1\NC(=O)[C@H](Cc2ccccc2)NC(=O)[C@@H](C(C)C)NC(=O)[C@@H]([C@H](C)CC)NC(=O)[C@H](NC(=O)[C@H](NC(=O)[C@H](CCCNC(=O)CCCC[C@@H]2SC[C@@H]3NC(=O)N[C@@H]32)NC(=O)[C@H]2CCCN2C(=O)[C@H](NC(=O)[C@@H](NC(=O)[C@@H](NC(=O)[C@H](NC(=O)CCCC(C)C)C(C)C)[C@@H](C)O)C(C)C)C(C)C)[C@H](C)CC)[C@H](C)OC(=O)[C@H](C(C)C)NC1=O 2.01

---

Consider the following compounds; for each one, report its CC50.
Tested on: SK-BR-3
Assay Name: Cytotoxicity against human SKBR3 cells after 48 hrs by SRB assay
Type: functional
Condition Label: SK-BR-3, 48 h, read-out: LC50 (the source's name)
Give bare numbers, in nM.

Worked cases, answers included:
[[record]]
substance_smiles = "C/C=C1\\NC(=O)[C@H](Cc2ccccc2)NC(=O)[C@@H](C(C)C)NC(=O)[C@@H]([C@H](C)CC)NC(=O)[C@H](NC(=O)[C@H](NC(=O)[C@H](CCCNC(=O)C[C@](OC)(c2ccccc2)C(F)(F)F)NC(=O)[C@H]2CCCN2C(=O)[C@H](NC(=O)[C@@H](NC(=O)[C@@H](NC(=O)[C@H](NC(=O)CCCC(C)C)C(C)C)[C@@H](C)O)C(C)C)C(C)C)[C@H](C)CC)[C@H](C)OC(=O)[C@H](C(C)C)NC1=O"
unit_tag = "nM"
endpoint_result = 158

[[record]]
substance_smiles = "C/C=C1\\NC(=O)[C@H](Cc2ccccc2)NC(=O)[C@@H](C(C)C)NC(=O)[C@@H]([C@H](C)CC)NC(=O)[C@H](NC(=O)[C@H](NC(=O)[C@H](CCCN)NC(=O)[C@H]2CCCN2C(=O)[C@H](NC(=O)[C@@H]2CCCN2C(=O)[C@@H](NC(=O)[C@H](NC(=O)CCCC(C)C)C(C)C)[C@@H](C)O)C(C)C)[C@H](C)CC)[C@H](C)OC(=O)[C@H](C(C)C)NC1=O"
unit_tag = "nM"
endpoint_result = 2780

[[record]]
substance_smiles = "C/C=C1\\NC(=O)[C@H](Cc2ccccc2)NC(=O)[C@@H](C(C)C)NC(=O)[C@@H]([C@H](C)CC)NC(=O)[C@H](NC(=O)[C@H](NC(=O)[C@H](CCCN)NC(=O)[C@H]2CCCN2C(=O)[C@H](NC(=O)[C@@H](NC(=O)[C@@H](NC(=O)[C@H](NC(=O)CC[C@@H](C)CC)C(C)C)[C@@H](C)O)C(C)C)C(C)C)[C@H](C)CC)[C@H](C)OC(=O)[C@H](C(C)C)NC1=O"
unit_tag = "nM"
endpoint_result = 395

[[record]]
substance_smiles = "C/C=C1\\NC(=O)[C@H](Cc2ccccc2)NC(=O)[C@@H](C(C)C)NC(=O)[C@@H]([C@H](C)CC)NC(=O)[C@H](NC(=O)[C@H](NC(=O)[C@H](CCCN)NC(=O)[C@H]2CCCN2C(=O)[C@H](NC(=O)CNC(=O)[C@@H](NC(=O)[C@H](NC(=O)CCCC(C)C)C(C)C)[C@@H](C)O)C(C)C)[C@H](C)CC)[C@H](C)OC(=O)[C@H](C(C)C)NC1=O"
unit_tag = "nM"
endpoint_result = 2850


What value of CC50 has been recorded for this entry: C/C=C1\NC(=O)[C@H](Cc2ccccc2)NC(=O)[C@@H](C(C)C)NC(=O)[C@@H]([C@H](C)CC)NC(=O)[C@H](NC(=O)[C@H](NC(=O)[C@H](CCCN)NC(=O)[C@H]2CCCN2C(=O)[C@H](NC(=O)[C@@H](NC(=O)[C@@H](NC(=O)[C@H](NC(=O)CCCCCCCCCC)C(C)C)[C@@H](C)O)C(C)C)C(C)C)[C@H](C)CC)[C@H](C)OC(=O)[C@H](C(C)C)NC1=O 73.6

---

Assay Name: Cytotoxicity against human IGROV-ET cells after 48 hrs by SRB assay
Format: functional
Condition Label: read-out: LC50 (the source's name)
Parameter: CC50 (nM)
Answers are plain numbers, in nM.

I'm hoping you can list CC50 for every compound here, please.
1. C/C=C1\NC(=O)[C@H](Cc2ccc3ccccc3c2)NC(=O)[C@@H](C(C)C)NC(=O)[C@@H]([C@H](C)CC)NC(=O)[C@H](NC(=O)[C@H](NC(=O)[C@H](CCCN)NC(=O)[C@H]2CCCN2C(=O)[C@H](NC(=O)[C@@H](NC(=O)[C@@H](NC(=O)[C@H](NC(=O)CCCC(C)C)C(C)C)[C@@H](C)O)C(C)C)C(C)C)[C@H](C)CC)[C@H](C)OC(=O)[C@H](C(C)C)NC1=O
2. C/C=C1\NC(=O)[C@H](Cc2ccccc2)NC(=O)[C@@H](C(C)C)NC(=O)[C@@H]([C@H](C)CC)NC(=O)[C@H](NC(=O)[C@H](NC(=O)[C@H](CCCN)NC(=O)[C@H]2CCCN2C(=O)[C@H](NC(=O)[C@@H](NC(=O)[C@@H](NC(=O)[C@H](NC(=O)CCCCCCCCCCCCCCCCCCC)C(C)C)[C@@H](C)O)C(C)C)C(C)C)[C@H](C)CC)[C@H](C)OC(=O)[C@H](C(C)C)NC1=O
3. C=C1NC(=O)[C@H](Cc2ccccc2)NC(=O)[C@@H](C(C)C)NC(=O)[C@@H]([C@H](C)CC)NC(=O)[C@H](NC(=O)[C@H](NC(=O)[C@H](CCCN)NC(=O)[C@H]2CCCN2C(=O)[C@H](NC(=O)[C@@H](NC(=O)[C@@H](NC(=O)[C@H](NC(=O)CCCC(C)C)C(C)C)[C@@H](C)O)C(C)C)C(C)C)[C@H](C)CC)[C@H](C)OC(=O)[C@H](C(C)C)NC1=O

1. 120
2. 1210
3. 392

---

System: HT-29
Assay Name: Cytotoxicity against human HT29 cells after 48 hrs by SRB assay
Type: functional, cell-based
Condition Label: Homo sapiens, HT-29, 48 h
Consider the following compounds; for each one, report its GI50.
Numbers only, in nM.

Worked cases, answers included:
[[record]]
substance_smiles = "C/C=C1\\NC(=O)[C@H](Cc2ccccc2)NC(=O)[C@@H](C(C)C)NC(=O)[C@@H]([C@H](C)CC)NC(=O)[C@H](NC(=O)[C@H](NC(=O)[C@H](CCCNC(=O)C[C@](OC)(c2ccccc2)C(F)(F)F)NC(=O)[C@H]2CCCN2C(=O)[C@H](NC(=O)[C@@H](NC(=O)[C@@H](NC(=O)[C@H](NC(=O)CCCC(C)C)C(C)C)[C@@H](C)O)C(C)C)C(C)C)[C@H](C)CC)[C@H](C)OC(=O)[C@H](C(C)C)NC1=O"
experimental_system = "HT-29"
unit_tag = "nM"
endpoint_result = 148

[[record]]
substance_smiles = "C/C=C1\\NC(=O)[C@H](Cc2cccc(Cl)c2)NC(=O)[C@@H](C(C)C)NC(=O)[C@@H]([C@H](C)CC)NC(=O)[C@H](NC(=O)[C@H](NC(=O)[C@H](CCCN)NC(=O)[C@H]2CCCN2C(=O)[C@H](NC(=O)[C@@H](NC(=O)[C@@H](NC(=O)[C@H](NC(=O)CCCC(C)C)C(C)C)[C@@H](C)O)C(C)C)C(C)C)[C@H](C)CC)[C@H](C)OC(=O)[C@H](C(C)C)NC1=O"
experimental_system = "HT-29"
unit_tag = "nM"
endpoint_result = 40.2

[[record]]
substance_smiles = "C/C=C1\\NC(=O)[C@H](CCC2CCCCC2)NC(=O)[C@@H](C(C)C)NC(=O)[C@@H]([C@@H](C)CC)NC(=O)[C@H](NC(=O)[C@H](NC(=O)[C@H](CCCN)NC(=O)[C@H]2CCCN2C(=O)[C@H](NC(=O)[C@@H](NC(=O)[C@@H](NC(=O)[C@H](NC(=O)CCCC(C)C)C(C)C)[C@@H](C)O)C(C)C)C(C)C)[C@@H](C)CC)[C@@H](C)OC(=O)[C@H](C(C)C)NC1=O"
experimental_system = "HT-29"
unit_tag = "nM"
endpoint_result = 294

[[record]]
substance_smiles = "CC[C@@H]1NC(=O)[C@H](Cc2ccccc2)NC(=O)[C@@H](C(C)C)NC(=O)[C@@H]([C@H](C)CC)NC(=O)[C@H](NC(=O)[C@H](NC(=O)[C@H](CCCN)NC(=O)[C@H]2CCCN2C(=O)[C@H](NC(=O)[C@@H](NC(=O)[C@@H](NC(=O)[C@H](NC(=O)CCCC(C)C)C(C)C)[C@@H](C)O)C(C)C)C(C)C)[C@H](C)CC)[C@H](C)OC(=O)[C@H](C(C)C)NC1=O"
experimental_system = "HT-29"
unit_tag = "nM"
endpoint_result = 7350


What value of GI50 has been recorded for this entry: C/C=C1\NC(=O)[C@H](Cc2ccccc2)NC(=O)[C@@H](C(C)C)NC(=O)[C@@H]([C@H](C)CC)NC(=O)[C@H](NC(=O)[C@H](NC(=O)[C@H](CCC(=O)O)NC(=O)[C@H]2CCCN2C(=O)[C@H](NC(=O)[C@@H](NC(=O)[C@@H](NC(=O)[C@H](NC(=O)CCCC(C)C)C(C)C)[C@@H](C)O)C(C)C)C(C)C)[C@H](C)CC)[C@H](C)OC(=O)[C@H](C(C)C)NC1=O 2670
